Reference for the values: patent US6919086B1

Test system: Phl p 5b-reactive T cell lines (TCLs) from allergic patients
Experiment: Proliferative reaction of Phl p 5b-reactive oligoclonal T cell lines ([3H]-thymidine incorporation)
Type: cell-based, human
Settings: primary stimulator r Phl p 5b; secondary activator 0.3 μM
RECORDED_ENDPOINT: Incorporation of [3H]-thymidine into TCL 7 19.2 (stimulation index class)

r Phl p 5b: recombinant wild type Phl p 5b, 265 amino acids, SEQ ID NO 87 (protein) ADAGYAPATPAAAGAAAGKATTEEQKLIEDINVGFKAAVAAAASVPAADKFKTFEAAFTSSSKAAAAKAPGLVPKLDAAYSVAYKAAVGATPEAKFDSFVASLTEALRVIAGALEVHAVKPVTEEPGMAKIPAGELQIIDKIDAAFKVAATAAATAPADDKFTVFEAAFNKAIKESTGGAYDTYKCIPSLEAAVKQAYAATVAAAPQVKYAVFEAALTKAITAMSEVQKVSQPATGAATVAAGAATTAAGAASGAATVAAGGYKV : +++ (>10 (+++))
DM1: deletion mutant of rPhl p 5b (ΔK50-P132, D49→L), SEQ ID NO 91 (protein) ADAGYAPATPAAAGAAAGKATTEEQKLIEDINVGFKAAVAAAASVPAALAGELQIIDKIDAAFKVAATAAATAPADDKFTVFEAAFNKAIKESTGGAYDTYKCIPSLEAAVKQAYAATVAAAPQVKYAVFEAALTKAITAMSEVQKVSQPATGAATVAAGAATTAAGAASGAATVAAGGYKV : +++ (>10 (+++))
